system_tested: T1, His9-hMSR1 (human MSR1 extracellular domain) (Homo sapiens, UniProt P21757)
T1 construct: human MSR1 extracellular domain expressed with a N-terminal nonahistidine tag; His9 (nonahistidine) (N); purchased R&D Systems 2708-MS
T1 sequence (P21757 77-451 limits assumed): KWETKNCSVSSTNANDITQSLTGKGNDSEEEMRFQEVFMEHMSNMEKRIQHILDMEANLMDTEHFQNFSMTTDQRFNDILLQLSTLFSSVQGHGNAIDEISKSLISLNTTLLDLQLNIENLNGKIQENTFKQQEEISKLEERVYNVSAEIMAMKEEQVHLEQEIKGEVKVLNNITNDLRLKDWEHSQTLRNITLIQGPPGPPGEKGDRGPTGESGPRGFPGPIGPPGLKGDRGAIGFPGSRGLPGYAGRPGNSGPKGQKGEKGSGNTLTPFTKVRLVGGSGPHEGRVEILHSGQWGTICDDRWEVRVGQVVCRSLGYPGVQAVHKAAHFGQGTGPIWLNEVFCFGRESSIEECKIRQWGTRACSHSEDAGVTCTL
run_description: Biacore surface plasmon resonance binding kinetics of anti-MSR1 mAbs, antibody-capture format
condition_label: 37° C.; analyte His9-hMSR1; antibody-capture format; NB = no binding observed
property_label: ka (M⁻¹ s⁻¹)
State just the number; it will be interpreted in M⁻¹ s⁻¹.

Task: Any idea what its ka is? The molecule is H1H27739P-N297Q: anti-MSR1 antibody "made with an N297Q single point mutation in human Fcγ portion" (antibody, V domains shown) VH: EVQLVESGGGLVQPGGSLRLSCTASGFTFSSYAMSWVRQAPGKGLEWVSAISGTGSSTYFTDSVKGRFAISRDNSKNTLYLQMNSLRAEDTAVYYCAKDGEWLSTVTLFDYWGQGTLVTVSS VL: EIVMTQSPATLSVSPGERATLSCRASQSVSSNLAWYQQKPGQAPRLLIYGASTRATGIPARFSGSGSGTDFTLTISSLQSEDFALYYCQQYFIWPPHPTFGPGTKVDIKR
Output: 776000
